Cited source for all entries: paper PMC6158253

# Test system: BmoR (MarR-type regulator) (Bacteroides fragilis 638R), ORF:dbdd3c1d
# Sequence: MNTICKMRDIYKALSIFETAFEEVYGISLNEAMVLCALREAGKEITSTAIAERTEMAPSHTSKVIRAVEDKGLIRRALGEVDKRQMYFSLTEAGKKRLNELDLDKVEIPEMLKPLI
# procedureSummary: EMSA
valueKind: binding

1. CCGGCCTCCATATCAAACAATAACCCGTTGCAACCTATGGATATTGGTGGTGTTCCATTCTATCGTACCTATGCCGTTAATTTAACCGTAAGATTCTAAAACATCTATATTGAAAGATATGAAAACATTTAAATATTTATTTGCAGGAGTTTGTTCCGTGT (double strand) [BF638R_4194 promoter (Methods text says BF638R_4199), 161 bp] = no binding
2. CCTGCTACGCCTCCAATAATAATAATCTTCATTTGAATATATTTTCGTTTTAAAATAGTTTCCTATGGAAATAAACGTTTGCCGACTTAAAAAGGTTCATGGAAAAGCTTAAAAAATTAACAAGTATGGGTTATCTTACTTACGGAAGTGC (double strand) [BF638R_0572-bmoR operon promoter (bmoO), 151 bp] = binds
3. CGTCTGACAGCAAGATAAAGTCCCTTAAAAGGGCCATGTTTCTTAATCGCTTCAATAGCGTATTGCGAACAAGTAGGAGTGAAACGACATGAAGGAGGAGT (double strand) [hlyD fragment (non-competitor DNA), 101 bp] = no binding
4. ACGAGACCGATAAATGTGAGTCGGTTCTTTTTCAAAAATGCTTTAATCATCTTTATTTCAGGGTGTTTTAGAATCTGTCTGAATTTTGTTCGAGATTGTTTTGAGATTTATTTTCAAGGATATTCTCTTGTCTCTGTGAAGGCATAGCGGGCTATGTGACGCATGAAAACA (double strand) [BF638R_2699-2701 operon promoter, 171 bp] = no binding
